Parameter IC50: see the listing below.
Target: Bifunctional epoxide hydrolase 2 (Homo sapiens, UniProt P34913)
Sequence (P34913 whole entry): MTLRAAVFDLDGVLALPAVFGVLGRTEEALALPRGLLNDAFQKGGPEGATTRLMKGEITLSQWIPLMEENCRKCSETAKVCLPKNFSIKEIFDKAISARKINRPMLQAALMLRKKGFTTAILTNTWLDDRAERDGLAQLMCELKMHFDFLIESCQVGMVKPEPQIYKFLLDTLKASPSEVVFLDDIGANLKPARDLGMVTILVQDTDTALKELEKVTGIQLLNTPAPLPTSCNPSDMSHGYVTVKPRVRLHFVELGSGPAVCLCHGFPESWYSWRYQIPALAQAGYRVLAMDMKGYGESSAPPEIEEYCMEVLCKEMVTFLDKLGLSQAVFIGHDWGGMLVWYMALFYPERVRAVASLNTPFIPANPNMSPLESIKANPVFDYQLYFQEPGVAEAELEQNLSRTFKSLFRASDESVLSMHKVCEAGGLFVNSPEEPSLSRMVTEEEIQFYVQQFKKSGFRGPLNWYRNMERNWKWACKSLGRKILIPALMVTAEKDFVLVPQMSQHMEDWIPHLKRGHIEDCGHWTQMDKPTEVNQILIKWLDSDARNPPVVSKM
Assay: Inhibition of recombinant human soluble epoxide hydrolase using PHOME as substrate assessed as 6-methoxynaphthaldehyde product formation preincubated with compound for 10 mins followed by substrate addition and measured by fluorescence based analysis
Report as a plain number; the unit nM is understood.

The compound "C[C@]12C[C@@H]3C[C@](C)(C1)C[C@@](NC(=O)Nc1ccc(CN4CCC(C(N)=O)CC4)cc1F)(C3)C2" showed IC50 equal to 1.54

The compound C[C@]12C[C@@H]3C[C@](C)(C1)C[C@@](NC(=O)Nc1ccc(CN4CCCC(C(=O)O)C4)cc1F)(C3)C2 (stereo partly drawn) showed IC50 equal to 2.3

----------
Biological target: Bifunctional epoxide hydrolase 2 (Mus musculus)
Assay: Inhibition of recombinant mouse soluble epoxide hydrolase using PHOME as substrate assessed as 6-methoxynaphthaldehyde product formation preincubated with compound for 10 mins followed by substrate addition and measured by fluorescence based analysis
reported_endpoint: IC50 (nM)
Report as a plain number; the unit nM is understood.

Answered cases to consult:
> print(dat)
                                   compound                              study.system  test.value
1  C[C@]12C[C@@H]3C[C@](C)(C1)C[C@@](NC(=O)Nc1ccc(C(=O)NC4CCC(C(=O)N5CCC(CCO)CC5)CC4)cc1F)(C3)C2 (stereo partly drawn)  Bifunctional epoxide hydrolase 2 (Mus musculus)        0.53
2  CCN(CC)C(=O)C1CCCN(C(=O)c2ccc(NC(=O)N[C@]34C[C@@H]5C[C@@](C)(C[C@@](C)(C5)C3)C4)c(F)c2)C1 (stereo partly drawn)  Bifunctional epoxide hydrolase 2 (Mus musculus)        0.38

// next item, IC50 requested
The compound "CCC(=O)N1CCC(CC(=O)N2CCCN(Cc3ccc(NC(=O)N[C@@]45C[C@@H]6C[C@@](C)(C[C@@](C)(C6)C4)C5)c(F)c3)CC2)CC1" showed IC50 equal to 0.07

----------
Molecular target: Bifunctional epoxide hydrolase 2 (Mus musculus, UniProt P34914)
Sequence (P34914 whole entry): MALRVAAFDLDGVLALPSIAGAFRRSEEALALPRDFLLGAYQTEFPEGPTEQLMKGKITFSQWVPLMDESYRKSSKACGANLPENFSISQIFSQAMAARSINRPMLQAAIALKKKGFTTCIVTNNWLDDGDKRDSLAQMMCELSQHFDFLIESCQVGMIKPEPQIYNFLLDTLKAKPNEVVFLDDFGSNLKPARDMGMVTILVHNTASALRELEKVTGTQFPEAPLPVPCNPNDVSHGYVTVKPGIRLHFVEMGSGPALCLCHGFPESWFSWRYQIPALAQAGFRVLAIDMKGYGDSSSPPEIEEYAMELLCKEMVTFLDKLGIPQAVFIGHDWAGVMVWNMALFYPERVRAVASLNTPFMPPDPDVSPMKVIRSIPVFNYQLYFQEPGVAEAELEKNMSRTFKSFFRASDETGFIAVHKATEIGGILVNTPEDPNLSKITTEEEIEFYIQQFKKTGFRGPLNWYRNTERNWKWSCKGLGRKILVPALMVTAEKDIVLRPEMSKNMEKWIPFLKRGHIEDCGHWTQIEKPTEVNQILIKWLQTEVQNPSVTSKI
Experiment: Inhibition of recombinant mouse soluble epoxide hydrolase using PHOME as substrate assessed as 6-methoxynaphthaldehyde product formation preincubated with compound for 10 mins followed by substrate addition and measured by fluorescence based analysis
reported_endpoint: pIC50
# pIC50 = -log10(concentration in molar units)

The molecule C[C@]12C[C@@H]3C[C@](C)(C1)C[C@@](NC(=O)Nc1ccc(CN4CCCC(C(=O)N(CCO)CCO)C4)cc1F)(C3)C2 (stereo partly drawn) showed pIC50 equal to 9.54

----------
Molecular target: Bifunctional epoxide hydrolase 2 (Mus musculus)
Assay: Inhibition of recombinant mouse soluble epoxide hydrolase using PHOME as substrate assessed as 6-methoxynaphthaldehyde product formation preincubated with compound for 10 mins followed by substrate addition and measured by fluorescence based analysis
reported_endpoint: pIC50
# pIC50 = -log10(concentration in molar units)

> print(dat)
                                   molecule  reported.endpoint  test.value
1  C[C@]12C[C@@H]3C[C@](C)(C1)C[C@@](NC(=O)Nc1ccc(CN4CCC(C(=O)N(CCO)CCO)CC4)cc1F)(C3)C2              pIC50        9.26

Readout pIC50 for C[C@]12C[C@@H]3C[C@](C)(C1)C[C@@](NC(=O)Nc1ccc(CN4CCCN(C(=O)CC5CCN(CC(O)CO)CC5)CC4)cc1F)(C3)C2 (stereo partly specified) , test system Bifunctional epoxide hydrolase 2 (Mus musculus), was 8.90

Readout pIC50 for "CCN(CC)CCN1CCC(CC(=O)N2CCCN(Cc3ccc(NC(=O)N[C@@]45C[C@@H]6C[C@@](C)(C[C@@](C)(C6)C4)C5)c(F)c3)CC2)CC1" , test system Bifunctional epoxide hydrolase 2 (Mus musculus), was 8.86

Readout pIC50 for "C[C@]12C[C@@H]3C[C@](C)(C1)C[C@@](NC(=O)Nc1ccc(CN4CCC(C(=O)NC(CO)CO)CC4)cc1F)(C3)C2" , test system Bifunctional epoxide hydrolase 2 (Mus musculus), was 8.65

Readout pIC50 for C[C@]12C[C@@H]3C[C@](C)(C1)C[C@@](NC(=O)Nc1ccc(C(=O)NC4CCC(C(=O)NC(CO)(CO)CO)CC4)cc1F)(C3)C2 (stereo partly specified) , test system Bifunctional epoxide hydrolase 2 (Mus musculus), was 9.92

Readout pIC50 for C[C@]12C[C@@H]3C[C@](C)(C1)C[C@@](NC(=O)Nc1ccc(C(=O)NC4CCC(C(N)=O)CC4)cc1F)(C3)C2 (stereo partly specified) , test system Bifunctional epoxide hydrolase 2 (Mus musculus), was 9.46

----------
Target: Bifunctional epoxide hydrolase 2 (Homo sapiens, UniProt P34913)
Assay: Inhibition of recombinant human soluble epoxide hydrolase using PHOME as substrate assessed as 6-methoxynaphthaldehyde product formation preincubated with compound for 10 mins followed by substrate addition and measured by fluorescence based analysis
Parameter IC50: see the listing below.

compound	IC50
CC(O)CNC(=O)C1CCN(C(=O)c2ccc(NC(=O)N[C@@]34C[C@@H]5C[C@@](C)(C[C@@](C)(C5)C3)C4)c(F)c2)CC1 (stereo partly drawn)	4.5 nM

The compound CCC(C)C(=O)N1CCCN(C(=O)C2CCCN(Cc3ccc(NC(=O)N[C@@]45C[C@@H]6C[C@@](C)(C[C@@](C)(C6)C4)C5)c(F)c3)C2)CC1 (stereo partly drawn) showed IC50 equal to 0.25 nM

The compound "CCN(CC)CCN1CCC(CC(=O)N2CCCN(Cc3ccc(NC(=O)N[C@@]45C[C@@H]6C[C@@](C)(C[C@@](C)(C6)C4)C5)c(F)c3)CC2)CC1" showed IC50 equal to 2.1 nM

The compound CCN(CC)C(=O)C1CCCN(Cc2ccc(NC(=O)N[C@@]34C[C@@H]5C[C@@](C)(C[C@@](C)(C5)C3)C4)c(F)c2)C1 (stereo partly drawn) showed IC50 equal to 0.35 nM

The compound C[C@]12C[C@@H]3C[C@](C)(C1)C[C@@](NC(=O)Nc1ccc(CN4CCCC(C(=O)NC(CO)CO)C4)cc1F)(C3)C2 (stereo partly drawn) showed IC50 equal to 0.28 nM

The compound "C[C@]12C[C@@H]3C[C@](C)(C1)C[C@@](NC(=O)Nc1ccc(CN4CCC(C(=O)N(CCO)CCO)CC4)cc1F)(C3)C2" showed IC50 equal to 6.72 nM

The compound C[C@]12C[C@@H]3C[C@](C)(C1)C[C@@](NC(=O)Nc1ccc(C(=O)N4CCCC(C(=O)O)C4)cc1F)(C3)C2 (stereo partly drawn) showed IC50 equal to 4.6 nM

The compound CC(O)CNC(=O)C1CCCN(Cc2ccc(NC(=O)N[C@@]34C[C@@H]5C[C@@](C)(C[C@@](C)(C5)C3)C4)c(F)c2)C1 (stereo partly drawn) showed IC50 equal to 0.28 nM

The compound C[C@]12C[C@@H]3C[C@](C)(C1)C[C@@](NC(=O)Nc1ccc(C(=O)NC4CCC(C(=O)NC(CO)(CO)CO)CC4)cc1F)(C3)C2 (stereo partly drawn) showed IC50 equal to 0.35 nM

The compound "COC(=O)N1CCC(CC(=O)N2CCCN(Cc3ccc(NC(=O)N[C@@]45C[C@@H]6C[C@@](C)(C[C@@](C)(C6)C4)C5)c(F)c3)CC2)CC1" showed IC50 equal to 1.1 nM

The compound "CCC(=O)N1CCC(CC(=O)N2CCCN(C(=O)c3ccc(NC(=O)N[C@@]45C[C@@H]6C[C@@](C)(C[C@@](C)(C6)C4)C5)c(F)c3)CC2)CC1" showed IC50 equal to 0.9 nM

The compound C[C@]12C[C@@H]3C[C@](C)(C1)C[C@@](NC(=O)Nc1ccc(C(=O)NC4CCC(C(=O)NC(CO)CO)CC4)cc1F)(C3)C2 (stereo partly drawn) showed IC50 equal to 0.91 nM

The compound "C[C@]12C[C@@H]3C[C@](C)(C1)C[C@@](NC(=O)Nc1ccc(CN4CCCN(C(=O)CC5CCN(CCO)CC5)CC4)cc1F)(C3)C2" showed IC50 equal to 4.69 nM

Ref: ChEMBL document CHEMBL5380778
